Taken from PubChem BioAssay (NCI).

- System: MALME-3M melanoma
- Experiment Notes: NCI tumour cell line growth inhibition, 48 h
This listing pairs molecules with measured TGI.

{"Molecule": "COC(=O)[C@@H]1CSC(=S)N1C(=O)C[C@H]1CC=CC[C@H]1CC(=O)Sc1ccccc1", "Qual": "=", "TGI, µM": 56.7}
{"Molecule": "CCCN(Cc1ccc(F)cc1)c1ccc(CO)c(Cl)c1", "Qual": "=", "TGI, µM": 28.6}
{"Molecule": "Cc1c2ccncc2cc2c1sc1ccncc12", "Qual": "=", "TGI, µM": 15}
{"Molecule": "COc1cc2cc(Oc3ccc(NC(=O)Nc4ccc(Cl)c(C(F)(F)F)c4)cc3)c(C)nc2cc1OCCN1CCCCC1", "Qual": "=", "TGI, µM": 3.13}
{"Molecule": "CCN=C1C=CC(=C(c2ccc(N(C)C)cc2)c2ccc(N(C)C)cc2)c2ccccc21", "Qual": "=", "TGI, µM": 0.0855}
{"Molecule": "COc1cc(/C=C/C(=O)c2sc(-n3nc(-c4ccccc4)cc3-c3ccccc3)nc2C)ccc1O", "Qual": ">", "TGI, µM": 100}
{"Molecule": "CC1CC2OC(=O)C3CC(O)CC(=C23)[C@@]12C[C@@H](c1ccoc1)OC2=O (stereo not given in full)", "Qual": ">", "TGI, µM": 100}
{"Molecule": "Cc1ccc2c(c1)C1(C)OC(CC(N)C1O)O2 (stereo not given)", "Qual": ">", "TGI, µM": 100}
{"Molecule": "CC(C)=CCOc1cc(NC(=S)c2ccoc2C)ccc1Cl", "Qual": ">", "TGI, µM": 100}
{"Molecule": "O=C1CC(=O)NC(=NN2C(=O)CSC2c2ccc(Cl)c(Cl)c2)N1 (stereo not given)", "Qual": ">", "TGI, µM": 100}
